Each recorded value in this set is attributed to ChEMBL document CHEMBL1154513.

Target Of Assay: Calpain-1 catalytic subunit (Homo sapiens)
Sequence (P07384 whole entry): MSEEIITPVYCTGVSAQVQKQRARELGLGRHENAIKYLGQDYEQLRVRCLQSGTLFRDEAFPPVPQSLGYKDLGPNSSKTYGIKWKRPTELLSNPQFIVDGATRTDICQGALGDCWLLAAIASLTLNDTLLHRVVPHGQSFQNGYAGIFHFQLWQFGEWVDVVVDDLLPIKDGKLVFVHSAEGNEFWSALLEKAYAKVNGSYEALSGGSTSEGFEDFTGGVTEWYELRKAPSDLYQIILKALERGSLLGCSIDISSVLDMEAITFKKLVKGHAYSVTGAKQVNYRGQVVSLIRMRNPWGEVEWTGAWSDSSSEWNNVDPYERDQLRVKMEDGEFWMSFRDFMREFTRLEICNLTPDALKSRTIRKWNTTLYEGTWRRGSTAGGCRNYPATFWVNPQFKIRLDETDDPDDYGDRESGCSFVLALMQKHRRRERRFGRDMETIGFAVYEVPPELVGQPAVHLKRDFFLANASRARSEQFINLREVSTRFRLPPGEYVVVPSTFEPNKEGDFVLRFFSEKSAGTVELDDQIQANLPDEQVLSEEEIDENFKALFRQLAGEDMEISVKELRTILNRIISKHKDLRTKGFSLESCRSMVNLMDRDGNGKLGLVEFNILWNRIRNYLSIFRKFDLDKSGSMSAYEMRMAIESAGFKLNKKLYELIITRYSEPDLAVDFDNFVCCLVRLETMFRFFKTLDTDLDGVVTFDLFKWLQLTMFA
Method Description: Inhibition of human erythrocytes mu-calpain
Measured Quantity: IC50 (µM)

Worked examples follow.
COc1ccccc1C(=O)CCC(=O)N[C@@H](Cc1ccccc1)C(=O)C(N)=O	0.54
O=C(CCC(=O)c1ccccc1)N[C@@H](Cc1ccccc1)C(=O)C(=O)NCc1ccccc1	6.25
COc1ccc(OC)c(C(=O)CCC(=O)N[C@@H](Cc2ccccc2)C(=O)C(N)=O)c1	0.52
COCOc1ccccc1C(=O)CCC(=O)N[C@@H](Cc1ccccc1)C(=O)C(N)=O	0.34
COc1ccc(OC)c(CCCC(=O)N[C@@H](Cc2ccccc2)C(=O)C(=O)NCc2ccccc2)c1	8

(I) COc1ccc(OC)c(C(=O)CCC(=O)N[C@@H](Cc2ccccc2)C(=O)C(=O)NCCc2ccc(OC)c(OC)c2)c1
(II) COc1ccc(CCNC(=O)C(=O)[C@H](Cc2ccccc2)NC(=O)CCC(=O)c2cc(OC)ccc2OC)cc1
(III) COc1ccccc1C(=O)CCC(=O)N[C@@H](Cc1ccccc1)C(=O)C(=O)NCc1ccccc1
(IV) O=C(CCC(=O)c1ccccc1O)N[C@@H](Cc1ccccc1)C(=O)C(=O)NCc1ccccc1
Put these in order: smallest IC50 first, largest last. # respond with the labels, arranged in the requested order
II, I, III, IV

----------
Target Of Assay: Calpain-1 catalytic subunit (Homo sapiens)
Sequence (P07384 whole entry): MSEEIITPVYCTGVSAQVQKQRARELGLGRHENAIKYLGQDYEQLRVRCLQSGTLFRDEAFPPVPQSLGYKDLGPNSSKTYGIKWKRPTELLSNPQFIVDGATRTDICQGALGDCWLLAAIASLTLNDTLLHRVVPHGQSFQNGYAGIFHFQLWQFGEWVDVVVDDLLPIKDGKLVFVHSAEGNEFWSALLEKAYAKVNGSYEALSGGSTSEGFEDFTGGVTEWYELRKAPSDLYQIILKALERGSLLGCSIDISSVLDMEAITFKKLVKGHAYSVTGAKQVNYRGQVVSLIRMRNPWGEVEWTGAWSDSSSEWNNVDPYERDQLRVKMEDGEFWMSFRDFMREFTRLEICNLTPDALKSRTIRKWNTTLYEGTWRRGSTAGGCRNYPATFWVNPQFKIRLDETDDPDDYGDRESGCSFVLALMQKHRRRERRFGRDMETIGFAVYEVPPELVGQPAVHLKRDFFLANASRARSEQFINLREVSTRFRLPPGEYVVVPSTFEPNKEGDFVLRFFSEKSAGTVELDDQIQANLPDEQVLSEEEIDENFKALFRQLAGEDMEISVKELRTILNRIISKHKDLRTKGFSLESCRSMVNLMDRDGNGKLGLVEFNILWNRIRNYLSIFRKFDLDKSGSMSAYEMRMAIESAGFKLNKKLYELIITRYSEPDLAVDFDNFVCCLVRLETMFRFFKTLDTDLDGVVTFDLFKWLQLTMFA
Method Description: Inhibition of human erythrocytes mu-calpain
pIC50: −log10 of the molar value.
Measured Quantity: pIC50

COCOc1ccccc1C(=O)CCC(=O)N[C@@H](Cc1ccccc1)C(=O)C(=O)NCc1ccccc1	5.37

(a) COCOc1cc(OC)ccc1C(=O)CCC(=O)N[C@@H](Cc1ccccc1)C(=O)C(=O)NCc1ccccc1
(b) COc1ccc(C(=O)CCC(=O)N[C@@H](Cc2ccccc2)C(=O)C(=O)NCc2ccccc2)c(O)c1
Given the two records a and b , choose the one whose pIC50 value is lower. Select an item and report its label.
b
(b: 4.89, a: 5.37)
